- System: MPNST multicellular tumor spheroids, viability % test/control
- Method description: Anticancer human tumor MPNST cell line growth inhibition;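 further: luminescence signal used as surrogate for viable cell amount; spheroids exposed to agents for seven days after three days of growth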
- Test conditions: second compound 31.6 µM; first compound 0.949 µM; stronger effect = lower value
What viability, T/C was measured for each of the following?
Field format: number, assumed %, no unit text.

Task: Quote viability, T/C reported for Cc1sc2c(c1C)C(c1ccc(Cl)cc1)=NC(CC(=O)Nc1ccc(O)cc1)c1nnc(C)n1-2 (centres undefined) + Cn1nnc2c(C(N)=O)ncn2c1=O please.
Result: 50

Task: Kindly indicate its recorded viability, T/C. Item: Cn1ncnc1[C@H]1c2n[nH]c(=O)c3cc(F)cc(c23)N[C@@H]1c1ccc(F)cc1 + Cn1nnc2c(C(N)=O)ncn2c1=O
Result: 48.2

Task: Identify the reported viability, T/C for the following entry. O=C(c1cc(Cc2n[nH]c(=O)c3ccccc23)ccc1F)N1CCN(C(=O)C2CC2)CC1 + Cn1nnc2c(C(N)=O)ncn2c1=O
Result: 80.2

Task: Determine its reported viability, T/C: CNCc1ccc(-c2cc(-c3nc(-c4ccc(S(=O)(=O)C(C)C)cc4)cnc3N)on2)cc1 + Cn1nnc2c(C(N)=O)ncn2c1=O
Result: 58

====

- Tested on: MPNST multicellular tumor spheroids, viability % test/control
- Method description: Anticancer human tumor MPNST cell line growth inhibition;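 further: luminescence signal used as surrogate for viable cell amount; spheroids exposed to agents for seven days after three days of growth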
- Test conditions: second compound 3.16 µM; first compound 1 µM; stronger effect = lower value
Binarize viability, T/C at 90%; below is rule met, at or above is rule not met.

Task: Is viability, T/C of Cc1cc(C)c(CNC(=O)c2cc(-c3ccc(CN4CCOCC4)cc3)cc3c2cnn3C2CCCC2)c(=O)[nH]1 + Cn1nnc2c(C(N)=O)ncn2c1=O strictly below 90%?
Result: rule not met

Task: Answer whether the compound COc1cc(C)[nH]c(=O)c1CN1CCc2c(Cl)cc(C(OC)C3COC3)c(Cl)c2C1=O (stereo unspecified) + Cn1nnc2c(C(N)=O)ncn2c1=O has viability, T/C strictly less than 90%
Result: rule not met

Task: Quick check: viability, T/C of COc1ccc([C@@H](O)c2cc(-c3ncnc4cc(N5CCOCC5)ccc34)c(F)cc2Cl)nn1 + Cn1nnc2c(C(N)=O)ncn2c1=O under 90%?
Result: rule met

Task: Is the reported viability, T/C for CC1COCCN1c1cc(-c2ccnn2C)c2ccnc(-c3ccn[nH]3)c2n1 (stereo unspecified) + Cn1nnc2c(C(N)=O)ncn2c1=O strictly below 90%?
Result: rule met

Task: Check if viability, T/C falls below 90% for CC(C)n1c(=O)n(C)c2cnc3cc(F)c(-c4ccc(OCCCN5CCCCC5)nc4)cc3c21 + Cn1nnc2c(C(N)=O)ncn2c1=O .
Result: rule not met

====

Can you tell me viability, T/C for the items I'm about to list?
- System: MPNST multicellular tumor spheroids, viability % test/control
- Method description: Anticancer human tumor MPNST cell line growth inhibition;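 further: luminescence signal used as surrogate for viable cell amount; spheroids exposed to agents for seven days after three days of growth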
- Test conditions: second compound 1 µM; first compound 0.0949 µM; stronger effect = lower value
The reply should contain only the number, in %.

Task: State measured viability, T/C of the compound Cc1sc2c(c1C)C(c1ccc(Cl)cc1)=NC(CC(=O)Nc1ccc(O)cc1)c1nnc(C)n1-2 (centres undefined) + Cn1nnc2c(C(N)=O)ncn2c1=O with MPNST multicellular tumor spheroids, viability % test/control.
Result: 78.7

Task: Provide viability, T/C, system MPNST multicellular tumor spheroids, viability % test/control, entry Cn1ncnc1[C@H]1c2n[nH]c(=O)c3cc(F)cc(c23)N[C@@H]1c1ccc(F)cc1 + Cn1nnc2c(C(N)=O)ncn2c1=O
Result: 70.3

Task: Would you please give the reported viability, T/C of O=C(c1cc(Cc2n[nH]c(=O)c3ccccc23)ccc1F)N1CCN(C(=O)C2CC2)CC1 + Cn1nnc2c(C(N)=O)ncn2c1=O with MPNST multicellular tumor spheroids, viability % test/control?
Result: 70.9

Task: Param request: viability, T/C | system MPNST multicellular tumor spheroids, viability % test/control | item CNCc1ccc(-c2cc(-c3nc(-c4ccc(S(=O)(=O)C(C)C)cc4)cnc3N)on2)cc1 + Cn1nnc2c(C(N)=O)ncn2c1=O
Result: 83
